- Test system: HSV-1 strain F or KOS
- testSummary: Inhibition of herpes simplex virus (HSV-1) replication in cell culture (BHK-21 cells, glycoprotein C ELISA)
- Type: cell-based
- testContext: Human alphaherpesvirus 1, BHK-21, Group 1 Table 1 entries
pEC50 by entry:
Answer as the number alone; pEC50 is minus log10 of concentration in mol/L.

>>> valuereported("CN(CC(=O)Nc1ccc(-c2csc(N)n2)cc1)C(=O)c1ccncc1")
5.74
>>> valuereported("Nc1nc(-c2ccc(NC(=O)CN(Cc3ccccc3)Cc3ccccc3)cc2)cs1")
6.35
>>> valuereported("Nc1nc(-c2ccc(NC(=O)CN(Cc3ccccc3)C(=O)c3ccccn3)cc2)cs1")
6.55

Reported pEC50 for Nc1nc(-c2ccc(NC(=O)CN(Cc3ccc(F)cc3)C(=O)c3ccccc3)cc2)cs1 : what is it?
7.82

###

- measurementTarget: HSV-1 helicase-primase (Human herpesvirus 1, UniProt P10189+P10236)
- Construct: made in house; host or cells: Sf21 insect cells triply infected with recombinant baculoviruses (UL5, UL8, UL52)
- Sequence (P10192 whole entry): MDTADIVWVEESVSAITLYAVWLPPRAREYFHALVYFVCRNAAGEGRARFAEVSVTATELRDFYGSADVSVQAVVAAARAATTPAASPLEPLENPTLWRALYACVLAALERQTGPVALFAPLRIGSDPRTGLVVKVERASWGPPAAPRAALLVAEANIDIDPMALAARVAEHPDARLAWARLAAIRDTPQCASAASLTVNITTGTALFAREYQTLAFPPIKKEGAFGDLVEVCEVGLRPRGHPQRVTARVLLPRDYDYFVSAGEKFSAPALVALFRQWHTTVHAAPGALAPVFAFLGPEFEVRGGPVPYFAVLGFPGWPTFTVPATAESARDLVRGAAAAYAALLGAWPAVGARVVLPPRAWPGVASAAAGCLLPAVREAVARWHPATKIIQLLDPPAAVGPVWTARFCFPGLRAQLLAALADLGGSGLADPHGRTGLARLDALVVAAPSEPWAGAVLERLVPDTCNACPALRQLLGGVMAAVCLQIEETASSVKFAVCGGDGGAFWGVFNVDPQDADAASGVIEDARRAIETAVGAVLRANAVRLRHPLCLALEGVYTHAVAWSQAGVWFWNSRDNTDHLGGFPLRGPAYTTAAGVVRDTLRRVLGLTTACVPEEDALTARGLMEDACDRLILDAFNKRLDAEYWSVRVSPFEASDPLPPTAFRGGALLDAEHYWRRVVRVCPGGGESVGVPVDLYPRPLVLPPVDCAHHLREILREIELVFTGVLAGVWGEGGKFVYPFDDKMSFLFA
- Sequence (P10236 whole entry): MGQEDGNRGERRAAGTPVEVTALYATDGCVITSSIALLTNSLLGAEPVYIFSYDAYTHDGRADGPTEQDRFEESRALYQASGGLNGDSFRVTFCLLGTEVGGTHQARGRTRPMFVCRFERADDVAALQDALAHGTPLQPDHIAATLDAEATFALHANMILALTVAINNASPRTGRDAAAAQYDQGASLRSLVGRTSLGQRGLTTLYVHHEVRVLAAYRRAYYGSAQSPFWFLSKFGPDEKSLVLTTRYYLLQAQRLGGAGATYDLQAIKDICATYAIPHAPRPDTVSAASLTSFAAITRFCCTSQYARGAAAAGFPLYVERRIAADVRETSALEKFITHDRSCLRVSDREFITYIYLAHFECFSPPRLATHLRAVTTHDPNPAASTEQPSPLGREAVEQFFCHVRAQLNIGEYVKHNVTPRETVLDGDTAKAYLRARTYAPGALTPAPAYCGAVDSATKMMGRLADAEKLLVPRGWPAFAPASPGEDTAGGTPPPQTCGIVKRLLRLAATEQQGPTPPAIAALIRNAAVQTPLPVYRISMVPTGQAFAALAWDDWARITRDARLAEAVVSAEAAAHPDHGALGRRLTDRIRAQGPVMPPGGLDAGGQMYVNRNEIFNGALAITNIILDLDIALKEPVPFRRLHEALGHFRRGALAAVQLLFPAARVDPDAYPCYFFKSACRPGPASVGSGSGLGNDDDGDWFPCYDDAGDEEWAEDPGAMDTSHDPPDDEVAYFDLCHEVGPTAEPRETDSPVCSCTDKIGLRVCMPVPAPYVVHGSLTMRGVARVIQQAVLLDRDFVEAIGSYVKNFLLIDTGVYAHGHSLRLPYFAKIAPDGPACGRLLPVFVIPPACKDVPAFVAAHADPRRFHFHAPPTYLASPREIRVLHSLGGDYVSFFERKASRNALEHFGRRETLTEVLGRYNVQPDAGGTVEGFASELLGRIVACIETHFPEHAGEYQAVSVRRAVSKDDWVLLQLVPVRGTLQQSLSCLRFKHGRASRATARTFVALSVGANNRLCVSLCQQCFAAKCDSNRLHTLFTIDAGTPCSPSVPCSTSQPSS
- Sequence (P10189 whole entry): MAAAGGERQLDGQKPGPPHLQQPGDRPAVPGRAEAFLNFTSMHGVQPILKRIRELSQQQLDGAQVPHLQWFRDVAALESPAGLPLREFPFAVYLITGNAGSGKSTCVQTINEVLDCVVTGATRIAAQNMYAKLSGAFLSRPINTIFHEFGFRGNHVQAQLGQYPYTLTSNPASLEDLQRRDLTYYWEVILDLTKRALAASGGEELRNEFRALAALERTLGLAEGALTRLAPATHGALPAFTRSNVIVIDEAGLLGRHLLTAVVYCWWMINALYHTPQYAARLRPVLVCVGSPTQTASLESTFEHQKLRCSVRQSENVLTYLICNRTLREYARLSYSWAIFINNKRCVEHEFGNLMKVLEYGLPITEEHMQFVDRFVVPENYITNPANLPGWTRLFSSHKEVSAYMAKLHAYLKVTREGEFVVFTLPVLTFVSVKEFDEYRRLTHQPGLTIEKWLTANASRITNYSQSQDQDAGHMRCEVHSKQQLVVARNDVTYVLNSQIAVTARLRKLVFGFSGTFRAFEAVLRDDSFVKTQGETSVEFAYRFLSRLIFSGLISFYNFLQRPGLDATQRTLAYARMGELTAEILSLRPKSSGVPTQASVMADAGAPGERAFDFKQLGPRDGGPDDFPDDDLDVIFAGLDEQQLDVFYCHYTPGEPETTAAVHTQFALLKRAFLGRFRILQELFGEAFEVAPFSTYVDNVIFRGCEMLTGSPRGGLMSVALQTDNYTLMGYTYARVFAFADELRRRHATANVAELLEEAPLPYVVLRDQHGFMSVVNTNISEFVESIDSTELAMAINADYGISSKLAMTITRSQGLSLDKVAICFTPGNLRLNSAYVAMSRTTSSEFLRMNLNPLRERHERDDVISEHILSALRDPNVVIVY
- testSummary: HSV-1 DNA-dependent ATPase assay (inhibition of HSV-1 helicase-primase)
- Assay type: biochemical
- testContext: Group 1 Table 1 entries
The label is 1 for IC50 below 600 nM and 0 for IC50 equal to or exceeding 600 nM.

Some solved cases for reference:
>>> labelvalue("Nc1nc(-c2ccc(NC(=O)CN(Cc3ccccc3)C(=O)c3ccncc3)cc2)cs1")
1
>>> labelvalue("Cc1cccc(C)c1C(=O)N(CC(=O)Nc1ccc(-c2csc(N)n2)cc1)Cc1ccccc1")
1
>>> labelvalue("C[C@H](c1ccccc1)N(CC(=O)Nc1ccc(-c2csc(N)n2)cc1)C(=O)Cc1ccccn1")
0
>>> labelvalue("Nc1nc(-c2ccc(NC(=O)CN(Cc3ccccc3)C(=O)c3cscn3)cc2)cs1")
0
>>> labelvalue("C[C@H](c1ccccc1)N(CC(=O)Nc1ccc(-c2csc(N)n2)cc1)C(=O)c1ccncc1")
0

Read the next record carefully.
Lab log: compare recorded IC50 with 600 nM; is it strictly lower for Nc1nc(-c2ccc(NC(=O)CN(Cc3ccccc3)C(=O)c3ccccn3)cc2)cs1 ?
0

###

- System: HCMV (strain AD169)
- testSummary: Inhibition of HCMV replication, plaque reduction assay (PRA, Hs-68 cells)
- Format: cell-based, Human Cytomegalovirus (HCMV)
- testContext: Human betaherpesvirus 5, AD169, Hs68, Group 1 Table 1 entries, read-out: PRA CMV EC50
EC50 by entry:

Solved entries:
>>> valuereported("Nc1nc(-c2ccc(NC(=O)CN(Cc3ccccc3)C(=O)c3ccsc3)cc2)cs1")
"49 µM"
>>> valuereported("Nc1nc(-c2ccc(NC(=O)CN(Cc3ccccc3)C(=O)c3ccccc3)cc2)cs1")
"36 µM"
>>> valuereported("Nc1nc(-c2ccc(NC(=O)CN(CCc3ccccc3)C(=O)C3CCCC3)cc2)cs1")
"> 10 µM"
>>> valuereported("Nc1nc(-c2ccc(NC(=O)CNCc3ccccn3)cc2)cs1")
"84 µM"
>>> valuereported("CC(C)(C)NC(=S)N(CC(=O)Nc1ccc(-c2csc(N)n2)cc1)Cc1ccccc1")
"> 24 µM"
>>> valuereported("Nc1nc(-c2ccc(NC(=O)CN(Cc3cccc(F)c3)C(=O)Cc3ccccn3)cc2)cs1")
"35 µM"
>>> valuereported("Nc1nc(-c2ccc(NC(=O)CN(Cc3ccccc3)C(=O)c3ccc(F)cc3)cc2)cs1")
"15 µM"

# next compound below
Reported EC50 for Nc1nc(-c2ccc(NC(=O)CN(Cc3ccccc3)C(=O)c3cccs3)cc2)cs1 : what is it?
8.5 µM

Just for reference, patent US6288091A is where these values come from.
